# PROCEDURE DETAILS: self-splicing fitness, log relative to wild type (ln ratio); higher = more splicing; Tetrahymena group I intron in knt gene, E. coli kanamycin selection, DiMSum; sequences stand for … in CUCUCU…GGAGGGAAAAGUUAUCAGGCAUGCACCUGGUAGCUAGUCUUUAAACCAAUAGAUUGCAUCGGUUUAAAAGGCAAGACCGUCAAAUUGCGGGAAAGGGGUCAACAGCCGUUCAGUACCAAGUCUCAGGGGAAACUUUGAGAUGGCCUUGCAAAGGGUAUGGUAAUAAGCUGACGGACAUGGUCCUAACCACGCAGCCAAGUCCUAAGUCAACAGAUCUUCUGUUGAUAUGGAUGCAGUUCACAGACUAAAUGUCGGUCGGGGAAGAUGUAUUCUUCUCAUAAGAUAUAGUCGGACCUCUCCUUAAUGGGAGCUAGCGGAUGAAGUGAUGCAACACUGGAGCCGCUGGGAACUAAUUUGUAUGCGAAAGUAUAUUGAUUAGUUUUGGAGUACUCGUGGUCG;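 further: selection with 25 µg/mL kanamycin versus none on LB agar overnight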
# MEASUREMENT SETUP: 37 °C
self-splicing fitness (ln) listing for selected sequences.
Lab note: write the figure by itself, no unit.

Below, 10 sequences whose answers are already recorded.
[
  {
    "CONSTRUCT SEQUENCE": "AAUUAGCAAUAUUACGUGAG",
    "REPORTED RESULT": -0.654
  },
  {
    "CONSTRUCT SEQUENCE": "GGGAAGCAAUAUUACGCGGG",
    "REPORTED RESULT": -1.8
  },
  {
    "CONSTRUCT SEQUENCE": "UUAUAGCAAUAUUACGUGCU",
    "REPORTED RESULT": -1.91
  },
  {
    "CONSTRUCT SEQUENCE": "CGGGAGCAAUAUUACGGUAU",
    "REPORTED RESULT": -2.36
  },
  {
    "CONSTRUCT SEQUENCE": "AGCGAGCAAUAUUACGACUA",
    "REPORTED RESULT": -1.03
  },
  {
    "CONSTRUCT SEQUENCE": "UGAAAGCAAUAUUACGAUGU",
    "REPORTED RESULT": -1.81
  },
  {
    "CONSTRUCT SEQUENCE": "UCCAAGCAAUAUUACGAUCC",
    "REPORTED RESULT": -0.628
  },
  {
    "CONSTRUCT SEQUENCE": "UGUAAGCAAUAUUACGUCGU",
    "REPORTED RESULT": -1.97
  },
  {
    "CONSTRUCT SEQUENCE": "AGCCAGCAAUAUUACGUCUU",
    "REPORTED RESULT": -0.744
  },
  {
    "CONSTRUCT SEQUENCE": "ACAUAGCAAUAUUACGAUCA",
    "REPORTED RESULT": -0.779
  }
]

So what does the record say about self-splicing fitness (ln) for "GCCGAGCAAUAUUACGUCAC" ? -1.57

Now the same for "GGGUAGCAAUAUUACGCACG" 0.541

// next record "GUCUAGCAAUAUUACGUAGA" -0.93

How about "GACUAGCAAUAUUACGAGCG" ? -0.592

# repeat for "UGCUAGCAAUAUUACGUAGU" -2.71

Same question for "GAGUAGCAAUAUUACGAUUC" please. -0.0237
